The origin of these recorded values is patent US11649255B2.

# System Tested: recombinant human HPK1 (Homo sapiens (Human), UniProt Q92918)
# Sequence (Q92918 whole entry): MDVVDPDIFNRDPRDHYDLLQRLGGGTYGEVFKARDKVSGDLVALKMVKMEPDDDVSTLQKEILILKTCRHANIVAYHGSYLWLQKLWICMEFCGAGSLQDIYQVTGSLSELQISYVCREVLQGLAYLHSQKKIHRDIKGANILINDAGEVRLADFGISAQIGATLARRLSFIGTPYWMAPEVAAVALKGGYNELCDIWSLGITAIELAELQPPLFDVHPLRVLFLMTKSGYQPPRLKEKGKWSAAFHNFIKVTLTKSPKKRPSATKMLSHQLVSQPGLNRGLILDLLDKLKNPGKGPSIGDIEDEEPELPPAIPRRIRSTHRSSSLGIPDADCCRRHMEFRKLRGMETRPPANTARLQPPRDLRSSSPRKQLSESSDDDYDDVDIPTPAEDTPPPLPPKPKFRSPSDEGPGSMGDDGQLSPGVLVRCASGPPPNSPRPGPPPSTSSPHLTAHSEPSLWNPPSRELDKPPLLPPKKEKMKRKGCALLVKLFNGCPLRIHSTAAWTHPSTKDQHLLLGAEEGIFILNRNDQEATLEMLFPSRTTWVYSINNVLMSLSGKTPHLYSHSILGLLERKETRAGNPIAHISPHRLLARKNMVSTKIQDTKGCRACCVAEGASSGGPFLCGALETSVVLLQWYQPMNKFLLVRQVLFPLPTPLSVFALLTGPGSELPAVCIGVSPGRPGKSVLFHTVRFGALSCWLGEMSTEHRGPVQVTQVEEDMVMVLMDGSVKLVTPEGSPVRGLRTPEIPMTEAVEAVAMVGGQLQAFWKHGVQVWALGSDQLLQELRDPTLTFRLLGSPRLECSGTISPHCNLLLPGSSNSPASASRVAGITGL
# Assay Explanation: HPK1 kinase assay (ADP-Glo)
# Setup Conditions: 25 μM ATP, MBP substrate
pIC50: −log10 of the molar value.
Parameter Measured: pIC50

Past entries and their recorded results:
O=C(Nc1cc2cc(-c3c(Cl)c(F)c(OC(F)(F)F)c4[nH]ncc34)ccn2n1)[C@@H]1C[C@@H]1F : > 7.00
O=C(Nc1cn2cc(-c3c(Cl)c(F)c(N4CCC4)c4[nH]ncc34)ccc2n1)[C@@H]1C[C@@H]1F : > 7.00
O=C(Nc1nc2ccc(-c3c(C(F)F)ccc4[nH]ncc34)cc2s1)[C@@H]1C[C@@H]1F : 6.30 to 7.00
CCc1c(F)c(N(C)CC)c2[nH]ncc2c1-c1ccc2nc(NC(=O)[C@@H]3C[C@@H]3F)cn2c1 : > 7.00
CCOc1c(F)c(SC)c(-c2ccc3nc(NC(=O)[C@@H]4C[C@@H]4F)sc3n2)c2cn[nH]c12 : > 7.00

For this compound ( CN(C)c1c(F)c(Cl)c(-c2ccc3nc(NC(=O)[C@@H]4C[C@@H]4F)sc3n2)c2cn[nH]c12 ), measured pIC50 is > 7.00

For this compound ( CCOc1c(F)cc2[nH]ncc2c1-c1ccc2nc(NC(=O)[C@@H]3C[C@@H]3F)sc2n1 ), measured pIC50 is < 6.00

----------
# System Tested: recombinant human HPK1 (Homo sapiens (Human), UniProt Q92918)
# Assay Explanation: HPK1 kinase assay (ADP-Glo)
# Setup Conditions: 25 μM ATP, MBP substrate
Measured IC50, listed per entry for reference.

Past entries and their recorded results:
CC(C)(C)OC(=O)NC1CCC(Nc2c(F)c(Cl)c(-c3ccn4nc(NC(=O)[C@@H]5C[C@@H]5F)cc4c3)c3cn[nH]c23)CC1 (stereo partly drawn) [Example 516] : < 0.1 µM
CC(=O)NC(C)c1c(F)c(Cl)c(-c2ccn3nc(NC(=O)[C@@H]4C[C@@H]4F)cc3c2)c2cn[nH]c12 (stereo partly drawn) [Example 663] : < 0.1 µM
CCc1c(F)c(SCC(=O)NC)c2[nH]ncc2c1-c1ccc2nc(NC(=O)[C@@H]3C[C@@H]3F)sc2n1 [Example 167] : < 0.1 µM
O=C(Nc1cc2cc(-c3c(C4CC4)c(F)cc4[nH]ncc34)ccn2n1)[C@@H]1C[C@@H]1F [Example 457] : < 0.1 µM
Cc1c(F)c(C(F)(F)F)c2[nH]ncc2c1-c1ccc2nc(NC(=O)[C@@H]3C[C@@H]3F)cn2c1 [Example 263] : < 0.1 µM

For this molecule ( CCc1c(F)c(SC2(C#N)CC2)c2[nH]ncc2c1-c1ccn2nc(NC(=O)[C@@H]3C[C@@H]3F)cc2c1 [Example 608] ), measured IC50 is < 0.1 µM

For this molecule ( COc1c(F)c(C)c(-c2ccc3nc(NC(=O)[C@@H]4C[C@@H]4F)sc3c2)c2cn[nH]c12 [Example 97] ), measured IC50 is < 0.1 µM

For this molecule ( CN(c1c(F)c(Cl)c(-c2ccc3nc(NC(=O)[C@@H]4C[C@@H]4F)sc3c2)c2cn[nH]c12)C1CNC1 [Example 129] ), measured IC50 is < 0.1 µM

----------
# System Tested: recombinant human HPK1 (Homo sapiens (Human), UniProt Q92918)
# Assay Explanation: HPK1 kinase assay (ADP-Glo)
# Setup Conditions: 25 μM ATP, MBP substrate
Parameter Measured: IC50

CN(C)c1c(F)c(Cl)c(-c2ccc3nc(NC(=O)[C@@H]4C[C@@H]4F)cn3c2)c2cn[nH]c12 : < 100 nM
CNNc1c(F)c(Cl)c(-c2ccc3nc(NC(=O)[C@@H]4C[C@@H]4F)cn3c2)c2cn[nH]c12 : < 100 nM
CCc1c(F)c(N(C)CC)c2[nH]ncc2c1-c1ccc2nc(NC(=O)[C@@H]3C[C@@H]3F)sc2n1 : < 100 nM

For this molecule ( CSc1c(F)cc(-c2ccc3nc(NC(=O)[C@@H]4C[C@@H]4F)sc3c2)c2cn[nH]c12 ), measured IC50 is > 1000 nM

For this molecule ( O=C(Nc1cn2cc(-c3c(C(F)F)ccc4[nH]ncc34)ccc2n1)C1CC1 ), measured IC50 is 101 to 500 nM

For this molecule ( CCOc1cc(C)c(-c2ccc3nc(NC(=O)[C@@H]4C[C@@H]4F)cn3c2)c2cn[nH]c12 ), measured IC50 is < 100 nM

For this molecule ( Cc1c(F)c(C(=O)O)c2[nH]ncc2c1-c1ccc2nc(NC(=O)[C@@H]3C[C@@H]3F)sc2n1 ), measured IC50 is > 1000 nM

For this molecule ( CSc1c(F)c(Cl)c(-c2ccc3nc(NC(=O)[C@@H]4C[C@@H]4F)cn3c2)c2cn[nH]c12 ), measured IC50 is < 100 nM

For this molecule ( NC1CCN(c2c(F)c(Cl)c(-c3ccc4nc(NC(=O)[C@@H]5C[C@@H]5F)sc4c3)c3cn[nH]c23)CC1 ), measured IC50 is 101 to 500 nM

For this molecule ( COc1c(F)cc2[nH]ncc2c1-c1ccn2nc(NC(=O)[C@@H]3C[C@@H]3F)cc2c1 ), measured IC50 is < 100 nM

For this molecule ( Cc1ccc2[nH]ncc2c1-c1ccc2nc(NC(=O)OC(C)(C)C)sc2c1 ), measured IC50 is > 1000 nM

For this molecule ( CCc1c(F)c(SC)c2[nH]ncc2c1-c1ccc2nc(NC(=O)[C@@H]3C[C@@H]3F)sc2n1 ), measured IC50 is < 100 nM

For this molecule ( COC[C@H](C)c1c(F)c(Cl)c(-c2ccc3nc(NC(=O)[C@@H]4C[C@@H]4F)cn3c2)c2cn[nH]c12 ), measured IC50 is < 100 nM

For this molecule ( O=C(Nc1cc2cc(-c3c(Cl)c(F)c(N4CCNCC4)c4[nH]ncc34)ccn2n1)[C@@H]1C[C@@H]1F ), measured IC50 is 101 to 500 nM

For this molecule ( O=C(O)NC1CN(c2c(F)c(Cl)c(-c3ccc4nc(NC(=O)[C@@H]5C[C@@H]5F)sc4c3)c3cn[nH]c23)C1 ), measured IC50 is < 100 nM

----------
Measured IC50, listed per entry for reference.
# System Tested: recombinant human HPK1 (Homo sapiens (Human), UniProt Q92918)
# Assay Explanation: HPK1 kinase assay (ADP-Glo)
# Setup Conditions: 25 μM ATP, MBP substrate

O=C(Nc1nc2ccc(-c3cc(-c4cccs4)cc4[nH]ncc34)cc2s1)C1CC1 : > 1000 nM
Cc1c(F)c(OCCNC(N)=O)c2[nH]ncc2c1-c1ccn2nc(NC(=O)[C@@H]3C[C@@H]3F)cc2c1 : < 100 nM
COc1cc(C)c(-c2ccn3nc(NC(=O)[C@@H]4C[C@@H]4F)cc3c2)c2cn[nH]c12 : < 100 nM

For this compound ( CN(Nc1c(F)c(Cl)c(-c2ccc3nc(NC(=O)[C@@H]4C[C@@H]4F)sc3c2)c2cn[nH]c12)C(=O)OC(C)(C)C ), measured IC50 is 101 to 500 nM

For this compound ( O=C(Nc1nc2ccc(-c3c(Br)c(F)cc4[nH]ncc34)nc2s1)[C@@H]1C[C@@H]1F ), measured IC50 is < 100 nM

For this compound ( CN(C)c1c(F)c(C(F)(F)F)c(-c2ccc3nc(NC(=O)[C@@H]4C[C@@H]4F)cn3c2)c2cn[nH]c12 ), measured IC50 is < 100 nM

----------
# System Tested: recombinant human HPK1 (Homo sapiens (Human), UniProt Q92918)
# Assay Explanation: HPK1 kinase assay (ADP-Glo)
# Setup Conditions: 25 μM ATP, MBP substrate
Parameter Measured: IC50

Past entries and their recorded results:
CN(C(=O)O)C1CN(c2c(F)c(Cl)c(-c3ccc4nc(NC(=O)[C@@H]5C[C@@H]5F)sc4c3)c3cn[nH]c23)C1 [Example 89] : < 100 nM
CC(C)c1c(F)c(Cl)c(-c2ccn3nc(NC(=O)[C@@H]4C[C@@H]4F)cc3c2)c2cn[nH]c12 [Example 640] : < 100 nM
CC(C#N)Nc1c(F)c(Cl)c(-c2ccn3nc(NC(=O)[C@@H]4C[C@@H]4F)cc3c2)c2cn[nH]c12 (stereo partly drawn) [Example 641] : < 100 nM

For this molecule ( CSc1ccc(-c2ccc3nc(NC(=O)[C@@H]4C[C@@H]4F)sc3n2)c2cn[nH]c12 [Example 212] ), measured IC50 is > 1000 nM

For this molecule ( O=C(Nc1cc2cc(-c3c(Cl)c(F)c(C4CC(O)CO4)c4[nH]ncc34)ccn2n1)[C@@H]1C[C@@H]1F (stereo partly drawn) [Example 658] ), measured IC50 is < 100 nM

For this molecule ( COC[C@@H](C)c1c(F)c(Cl)c(-c2ccn3nc(NC(=O)[C@@H]4C[C@@H]4F)cc3c2)c2cn[nH]c12 [Example 656] ), measured IC50 is < 100 nM

For this molecule ( CCc1ccc2[nH]ncc2c1-c1ccn2nc(NC(=O)[C@@H]3C[C@@H]3F)cc2c1 [Example 452] ), measured IC50 is < 100 nM

For this molecule ( CCOc1c(F)c(Cl)c(-c2ccc3nc(NC(=O)[C@@H]4C[C@@H]4F)sc3c2)c2cn[nH]c12 [Example 81] ), measured IC50 is < 100 nM

For this molecule ( O=C(Nc1cn2cc(-c3cccc4[nH]ncc34)ccc2n1)[C@@H]1C[C@@H]1F [Example 222] ), measured IC50 is 501 to 1000 nM

For this molecule ( CC(=O)c1c(F)c(Cl)c(-c2ccc3nc(NC(=O)[C@@H]4C[C@@H]4F)cn3c2)c2cn[nH]c12 [Example 319] ), measured IC50 is < 100 nM

For this molecule ( CSc1ccc2[nH]ncc2c1-c1ccc2nc(NC(=O)C3CC3)cn2c1 [Example 247] ), measured IC50 is < 100 nM
